TARGET_SYSTEM: T1, human serum albumin (human, UniProt P02768 25-609)
T1 construct: Immobilised on SPR chips; also added in solution in the FcRn occupancy assays; also called HSA; humanSA
ASSAY_NAME: SPR Biacore 8K+ SCK, albumin on chip, pH 5.5
MEASURED_QUANTITY: pKd
For clarity, pKd is expressed as the negative log10 of concentration in mol/L.

1. Alb23 M34A (VHH, VHH alone) VHH: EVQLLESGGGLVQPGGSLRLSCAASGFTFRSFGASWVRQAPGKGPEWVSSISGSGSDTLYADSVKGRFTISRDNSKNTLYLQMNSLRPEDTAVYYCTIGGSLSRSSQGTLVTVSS    7.13

[ask] What does the record list as pKd for Alb23 G100A (VHH, VHH alone) VHH: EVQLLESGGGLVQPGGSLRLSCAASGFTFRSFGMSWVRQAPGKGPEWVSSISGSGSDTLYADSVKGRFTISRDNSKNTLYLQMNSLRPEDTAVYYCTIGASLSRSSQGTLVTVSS ?
[reply] 7.71
